Cited source: PubChem BioAssay (NCI)

System: UACC-257 melanoma
Test Protocol: NCI tumour cell line growth inhibition, 48 h
compounds and their reported TGI

{"columns": ["Compound", "Value Observed"],
 "data": [
  ["COc1cccc(C=NC23CC4CC(CC(C4)C2)C3)c1", "> 100 µM"],
  ["CC(=O)c1c(-c2ccco2)c(C#N)c(=S)n(C2OC(CO)C(O)C(O)C2O)c1C (stereo unspecified)", "> 100 µM"],
  ["O=C1N=C2N=C(c3ccc(Cl)cc3)N(c3ccc(Cl)cc3)N2Sc2ccccc21", "> 100 µM"]
]}

[ask] Request: TGI, test system UACC-257 melanoma, entry CC(Cl)(CCC(Cl)C(C)(C)Cl)C(=O)CBr (stereo unspecified)
[reply] 25.5 µM

[ask] Request: TGI, test system UACC-257 melanoma, entry `COc1ccc2c(CN3CCCC[C@H]3O)cc3cc4c(cc3c2c1)OCO4`
[reply] 0.737 µM

[ask] Request: TGI, test system UACC-257 melanoma, entry `C/C(=N\Nc1nc2cc(F)ccc2s1)c1ccccn1`
[reply] > 24.4 µM

[ask] Request: TGI, test system UACC-257 melanoma, entry `CC(C)(C)OC(=O)NCC(c1c[nH]c2ccccc12)c1c[nH]c2ccccc12`
[reply] 28.6 µM

[ask] Request: TGI, test system UACC-257 melanoma, entry `CCOc1ccc2cc(-c3nn(CC4CCN(C)CC4)c4ncnc(N)c34)ccc2c1`
[reply] 30.2 µM

[ask] Request: TGI, test system UACC-257 melanoma, entry `C=CCN1C(=O)C[C@H](Cc2ccccc2)NC(=O)C[C@H](Cc2ccccc2)N(CC=C)C(=O)C[C@H](Cc2ccccc2)NC(=O)C[C@@H]1Cc1ccccc1`
[reply] > 100 µM

[ask] Request: TGI, test system UACC-257 melanoma, entry `COC(=O)c1c(CC(=O)OC(C)C)cc2n(c1=O)Cc1c-2nc2ccccc2c1OC`
[reply] > 100 µM
